Cited source: the supplement of paper PMC10567573

B1: WSB1 (parent)
chain: DLKDDGNMMKVLRGHQNWVYSCAF

- Variants of: B1
- protocol.description: protein stability index of a GFP-peptide fusion (GPS, HEK-293T) (PSI 1-6); higher = more stable;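 further: lentivirally expressed fusions sorted by FACS into six bins by GFP to DsRed ratio, PSI derived from sequencing read proportions per bin multiplied by bin number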
- condition.summary: c terminus: a fixed tail appended

{"residue.change": "K3T", "protein stability index": 2.65}
{"residue.change": "L2I", "protein stability index": 1.69}
{"residue.change": "G6W", "protein stability index": 3.64}
{"residue.change": "V19A", "protein stability index": 2.53}
{"residue.change": "D1A", "protein stability index": 1.62}
{"residue.change": "G6C", "protein stability index": 2.17}
{"residue.change": "Q16F", "protein stability index": 2.8}
{"residue.change": "V19H", "protein stability index": 2.12}
{"residue.change": "D4T", "protein stability index": 1.98}
{"residue.change": "C22S", "protein stability index": 1.61}
{"residue.change": "A23Y", "protein stability index": 2.29}
{"residue.change": "Y20V", "protein stability index": 3.3}
{"residue.change": "V11P", "protein stability index": 2.31}
{"residue.change": "D5I", "protein stability index": 2.12}
{"residue.change": "Q16S", "protein stability index": 2.54}
{"residue.change": "K10N", "protein stability index": 1.31}
{"residue.change": "D5H", "protein stability index": 1.86}
{"residue.change": "N7K", "protein stability index": 2}
{"residue.change": "G6K", "protein stability index": 1.75}
{"residue.change": "D4K", "protein stability index": 2.29}
{"residue.change": "Q16C", "protein stability index": 2.3}
{"residue.change": "W18S", "protein stability index": 2.7}
